Where do the numbers come from? From paper PMC3760508.

Biological target: cruzain (Trypanosoma cruzi, UniProt P25779)
Sequence (P25779 123-467): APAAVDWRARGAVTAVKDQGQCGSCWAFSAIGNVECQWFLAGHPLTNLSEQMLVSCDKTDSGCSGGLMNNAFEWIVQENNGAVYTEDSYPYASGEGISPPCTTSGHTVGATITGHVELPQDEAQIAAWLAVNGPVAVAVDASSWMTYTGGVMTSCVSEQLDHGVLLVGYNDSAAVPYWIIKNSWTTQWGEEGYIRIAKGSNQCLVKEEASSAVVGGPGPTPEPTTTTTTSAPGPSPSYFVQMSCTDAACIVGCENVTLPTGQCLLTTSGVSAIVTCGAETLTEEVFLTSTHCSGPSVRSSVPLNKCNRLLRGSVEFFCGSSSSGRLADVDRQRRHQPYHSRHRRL
Experiment: biochemical
Type: biochemical
Conditions: high Triton (0.01% Triton X-100); 23 at 50 μM
RECORDED_ENDPOINT: mode of cruzain inhibition

> print(dat)
                                   compound                           target.of.assay                  result
1  CCC(NC(=O)COC(=O)c1cccnc1N)c1ccc(Br)cc1 (stereo not shown)  cruzain (Trypanosoma cruzi, UniProt P25779)  competitive inhibitors
2           Nc1ncccc1C(=O)OCC(=O)NC1CCCCCC1  cruzain (Trypanosoma cruzi, UniProt P25779)  competitive inhibitors

###

Target: cruzain (Trypanosoma cruzi)
RECORDED_ENDPOINT: IC50
Write the numeric value and append its unit.

Task: Please respond with reported IC50 (system cruzain (Trypanosoma cruzi)) for Nc1ccccc1-c1nnc(C(=O)Nc2cc(-c3cccs3)[nH]n2)o1 [Compound 23] .
Result: 82.4 µM
